Where these numbers come from: patent US5814634A

Items are presented alongside their recorded AT: toxicity at single dose, 5 levels.
test system: Male Slc:ICR mice; parameters: species or system mouse (male Slc:ICR); details: mouse, in vivo
endpointLabel: AT: toxicity at single dose, 5 levels

structureSmiles: COc1cc(C(=O)NCCN2CCOCC2)cc(OC)c1OC/C=C(\C)CCC=C(C)C
experimentalValue: 4
--
structureSmiles: COc1ccc(OC/C=C(\C)CCC=C(C)C)c(C(=O)NCCN2CCCCC2)c1
experimentalValue: 3
--
structureSmiles: CC(C)=CCOc1cc(C(=O)NCCN2CCCCC2)cc(OCC=C(C)C)c1OCC=C(C)C
experimentalValue: 4
--
structureSmiles: CC(C)=CCC/C(C)=C\COc1ccc(C(=O)NCCN2CCCCC2)cc1
experimentalValue: 3
--
structureSmiles: CC(C)=CCC/C(C)=C/CC/C(C)=C/COc1ccc(C(=O)NCCN2CCCCC2)cc1
experimentalValue: 4
--
structureSmiles: CC(C)=CCOc1ccc(C(=O)NCCN2CCOCC2)cc1OCC=C(C)C
experimentalValue: 4
--
structureSmiles: COc1cc(C(=O)NCCN2CCOCC2)cc(OC)c1OC/C=C(/C)CCC=C(C)C
experimentalValue: 4
--
structureSmiles: COc1cc(C(=O)NCCN2CCOCC2)cc(OC/C=C(\C)CCC=C(C)C)c1OC
experimentalValue: 4
--
structureSmiles: CC(C)=CCC/C(C)=C/COc1cccc(C(=O)NCCN2CCOCC2)c1
experimentalValue: 5
--
structureSmiles: COc1ccc(C(=O)NCCN2CCCCC2)cc1OC/C=C(\C)CCC=C(C)C
experimentalValue: 3
--
structureSmiles: CC(C)Cc1cc(C(=O)NCCN2CCN(CC(C)C)CC2)ccc1OCc1ccc(F)cc1
experimentalValue: 3
--
structureSmiles: CC(C)=CCC/C(C)=C/COc1ccc(F)cc1C(=O)NCCN1CCCCC1
experimentalValue: 3
--
structureSmiles: CC(C)=CCC/C(C)=C/COc1ccc(C(=O)NCCN2CCOCC2)cc1
experimentalValue: 5
--
structureSmiles: COc1cc(C(=O)NCCN2CCCCC2)cc(OC/C=C(\C)CCC=C(C)C)c1OC
experimentalValue: 5
--
structureSmiles: CC(C)=CCC/C(C)=C/COc1ccc(C(=O)NCCN2CCCCC2)cc1OC/C=C(\C)CCC=C(C)C
experimentalValue: 4
--
structureSmiles: CC(C)=CCOc1cc(C(=O)NCCN2CCOCC2)cc(OCC=C(C)C)c1OCC=C(C)C
experimentalValue: 4
--
structureSmiles: CC(C)=CCC/C(C)=C/COc1cccc(C(=O)NCCN2CCCCC2)c1
experimentalValue: 3
--
structureSmiles: CC(C)=CCC/C(C)=C/COc1cc(OC/C=C(\C)CCC=C(C)C)cc(C(=O)NCCN2CCCCC2)c1
experimentalValue: 3
--
structureSmiles: CC(C)=CCOc1ccc(OCC=C(C)C)c(C(=O)NCCN2CCCCC2)c1
experimentalValue: 3

====

test: in vitro; details: rabbit, gastric mucosal cells

structureSmiles: CC(C)=CCC/C(C)=C/COc1ccc(C(=O)NCCN2CCN(c3nc4ccccc4s3)CC2)cc1
cytotoxicity at 4 h, 100 µM, %: 7
--
structureSmiles: COc1cccc(C(=O)NCCN2CCCCC2)c1OC/C=C(\C)CCC=C(C)C
cytotoxicity at 4 h, 100 µM, %: 12
--
structureSmiles: COc1cc(C(=O)NCCN2CCCCC2)cc(OC)c1OCC=C(C)C
cytotoxicity at 4 h, 100 µM, %: -11
--
structureSmiles: CC(C)=CCOc1ccc(C(=O)NCCN2CCCCC2)c(OCC=C(C)C)c1
cytotoxicity at 4 h, 100 µM, %: 18
--
structureSmiles: CCN(CCN1CCCCC1)C(=O)c1ccc(OC/C=C(\C)CCC=C(C)C)cc1
cytotoxicity at 4 h, 100 µM, %: 41

====

assay: in vitro; details: rabbit, gastric mucosal cells
just bin them by cytotoxicity at 4 h, 100 µM: bin A (below -10%), bin B (-10% to below 20%), bin C (20% or more)

structureSmiles: CC(C)=CCOc1ccc(OCC=C(C)C)c(C(=O)NCCN2CCCCC2)c1
assignedClass: bin A
--
structureSmiles: CC(C)=CCOc1ccc(C(=O)NCCN2CCCCC2)cc1
assignedClass: bin B
--
structureSmiles: CC(C)=CCOc1ccc(C(=O)NCCN2CCOCC2)cc1
assignedClass: bin A
--
structureSmiles: CC(C)=CCC/C(C)=C/COc1ccc(C(=O)NCCN2CCCCC2)cc1OC/C=C(\C)CCC=C(C)C
assignedClass: bin C
--
structureSmiles: CC(C)=CCOc1cc(OCC=C(C)C)cc(C(=O)NCCN2CCCCC2)c1
assignedClass: bin C
--
structureSmiles: CC(C)=CCC/C(C)=C/COc1cccc(C(=O)NCCN2CCOCC2)c1
assignedClass: bin B
--
structureSmiles: CC(C)=CCOc1ccc(C(=O)NCCN2CCCCC2)cc1OCC=C(C)C
assignedClass: bin B
--
structureSmiles: CC(C)=CCC/C(C)=C/COc1cc(OC/C=C(\C)CCC=C(C)C)cc(C(=O)NCCN2CCOCC2)c1
assignedClass: bin A
--
structureSmiles: COc1ccc(N2CCN(CCNC(=O)c3ccc(OC/C=C(\C)CCC=C(C)C)cc3)CC2)cc1
assignedClass: bin B

====

Items are presented alongside their recorded AT: toxicity at single dose, 5 levels.
Tested on: Male Slc:ICR mice
Design: species or system mouse (male Slc:ICR)
Settings: mouse, in vivo
Method: AT: Single Dose Toxicity Pretest Male Slc:ICR mice (5-week-old) were used. Each group has 3 to 5 mice and each mouse was fasted, but allowed free access to water, for 4 to 5 hours from 9 a.m. in the test day. […] The body weight was measured before and after the fasting as well as at the same time everyday. […] The toxicity at the single dose of 2,000 mg/kg of the sample compound was expressed as being classified into 5 levels. […]
endpointLabel: AT: toxicity at single dose, 5 levels

structureSmiles: CC(C)=CCC/C(C)=C/COc1ccc(C(=O)NCCN2CCCCC2)cc1
endpointLabel: AT: toxicity at single dose, 5 levels
experimentalValue: 4

structureSmiles: CC(C)=CCOc1ccc(C(=O)NCCN2CCOCC2)cc1
endpointLabel: AT: toxicity at single dose, 5 levels
experimentalValue: 3

structureSmiles: CC(C)=CCC/C(C)=C/COc1ccc(OC/C=C(\C)CCC=C(C)C)c(C(=O)NCCN2CCCCC2)c1
endpointLabel: AT: toxicity at single dose, 5 levels
experimentalValue: 5

structureSmiles: CC(C)=CCC/C(C)=C/CC/C(C)=C/COc1ccc(C(=O)NCCN2CCOCC2)cc1
endpointLabel: AT: toxicity at single dose, 5 levels
experimentalValue: 5

structureSmiles: COc1cc(C(=O)NCCN2CCCCC2)ccc1OC/C=C(\C)CCC=C(C)C
endpointLabel: AT: toxicity at single dose, 5 levels
experimentalValue: 3
